Overview of reported aptazyme ON/OFF ratio across a group of variants:
B1: Pistol ribozyme (parent)
chain: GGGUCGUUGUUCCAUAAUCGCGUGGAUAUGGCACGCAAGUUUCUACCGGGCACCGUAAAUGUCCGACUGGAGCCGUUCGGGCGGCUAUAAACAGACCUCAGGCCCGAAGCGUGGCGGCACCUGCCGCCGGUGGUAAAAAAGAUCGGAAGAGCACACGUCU

Variants of: B1
test: aptazyme ON/OFF ratio, guanine; higher = stronger switching; co-transcriptional cleavage with and without guanine

>>> print(df.to_string())
                    mutation_label  reading
0                         U8C U11G     1.26
1  U7G U8C G9C U10A U11G C12A C13U     1.11
2  U7G U8C G9C U10C U11C C12G C13G     1.04
3            U7C U8A G9C U11A C13U     1.13
4       U7G U8A G9A U11C C12A C13U      1.1
5            U7A U8A G9C U10G C12G     1.33

Exercise: # query: aptazyme ON/OFF ratio of entry U7G U8A C12A
Key: 1.27

Exercise: # query: aptazyme ON/OFF ratio of entry U7G U8G G9C U11C C12U
Key: 2.49

Exercise: # query: aptazyme ON/OFF ratio of entry U7C U8C G9A U10G C13U
Key: 1.37

Exercise: # query: aptazyme ON/OFF ratio of entry U7G U8A G9U U10C U11G C12G C13G
Key: 1.05

Exercise: # query: aptazyme ON/OFF ratio of entry U7A U8C G9A U10G U11G C13G
Key: 1.15
